Below is a list of entries, each paired with its recorded Kd value.
- ASSAYED SYSTEM: SARS-CoV spike (S) (SARS-CoV, UniProt P59594 14-1195)
- TEST SUMMARY: SPR, VHH over immobilised S
Respond with the bare value in nM.

[
  {
    "BINDER": "NRCoV2-07 VHH (VHH) VHH: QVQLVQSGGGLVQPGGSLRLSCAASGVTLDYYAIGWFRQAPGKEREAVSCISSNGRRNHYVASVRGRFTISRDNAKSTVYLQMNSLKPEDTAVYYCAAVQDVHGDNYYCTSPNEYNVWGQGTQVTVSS",
    "Kd (nM)": 12.2
  },
  {
    "BINDER": "NRCoV2-SR01 VHH (VHH) VHH: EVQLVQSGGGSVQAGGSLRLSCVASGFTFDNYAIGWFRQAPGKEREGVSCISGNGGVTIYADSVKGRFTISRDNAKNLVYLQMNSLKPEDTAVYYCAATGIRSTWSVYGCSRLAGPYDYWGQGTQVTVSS",
    "Kd (nM)": 0.154
  }
]

Reported Kd for NRCoV2-S2F3 VHH (VHH) VHH: EVQLVQSGGGLVQAGGSLRLSCATSVRILSVPAMGWYRQAPGKEREMVAVITSGGSTNYADSVKGRFTISRDNAKNTVYLQMNSLKLEDTAVYQCNLRDILSQPFWGQGTQVTVSS was 4.91

Reported Kd for NRCoV2-MRed18 VHH (VHH) VHH: EVQLVESGGGLVQPGGSLRLSCAASTTVFGRNAMGWYRQAPGKERELVATVSDGGTPNYADSVKGRFTISRDNAKNTIYLQMNSLEPEDTAVYYCNYYNYYYGRNFWGQGTQVTVSS was 22.5
